The measured values listed here are drawn from ChEMBL document CHEMBL3580595.

test: Cytoprotective activity against H2O2-induced cytotoxicity in human EAhy926 cells pre-incubated for 24 hrs before H2O2 challenge for 12 hrs by MTT assay; assay type: functional, cell-based; settings: EA.hy 926
pEC50: −log10 of the molar value.
Observed Property: pEC50

1) Cc1nc(C)c(C(=O)Oc2ccccc2/C=C/C(=O)O)nc1C	4.44
2) CCOC(=O)/C=C/c1ccc(OC(=O)c2nc(C)c(C)nc2C)c(OC)c1	4.41
3) CCOC(=O)/C=C/c1cccc(OC(=O)c2nc(C)c(C)nc2C)c1	4.03
4) CCOC(=O)/C=C/c1ccc(O)c(O)c1 [ETHYL CAFFEATE]	4.94
5) CCOC(=O)/C=C/c1ccccc1OC(=O)c1nc(C)c(C)nc1C	3.96
6) Cc1nc(C)c(C)nc1C	4.08
7) Cc1nc(C)c(C(=O)Oc2ccc(/C=C/C(=O)O)cc2O)nc1C	5.66
8) COc1ccc(/C=C/C(=O)O)cc1OC(=O)c1nc(C)c(C)nc1C	5.06
9) COc1ccc(/C=C/C(=O)O)cc1O	4.53
10) CCOC(=O)/C=C/c1cc(OC)c(O)c(OC)c1	4.17
11) CCOC(=O)/C=C/c1cc(OC)ccc1OC(=O)c1nc(C)c(C)nc1C	3.98
12) Cc1nc(C)c(C(=O)Oc2ccc(Cl)cc2/C=C/C(=O)O)nc1C	4.02
13) COc1cc(/C=C/C(=O)O)ccc1OC(=O)c1nc(C)c(C)nc1C	4.16
14) Cc1nc(C)c(C(=O)Oc2cccc(/C=C/C(=O)O)c2)nc1C	4.62
15) CCOC(=O)/C=C/c1cc(Cl)ccc1OC(=O)c1nc(C)c(C)nc1C	4.44
16) CCOC(=O)/C=C/c1ccc(OC)c(OC(=O)c2nc(C)c(C)nc2C)c1	4.52
17) O=C(O)CCCCC1CCSS1 (stereo not drawn)	4.17
18) COc1ccc(/C=C/C(=O)O)c(OC(=O)c2nc(C)c(C)nc2C)c1	3.94
19) Cc1nc(C)c(C(=O)Oc2ccc(/C=C/C(=O)O)cc2)nc1C	4.42
20) COc1ccc(OC(=O)c2nc(C)c(C)nc2C)c(/C=C/C(=O)O)c1	4.31
21) COc1cc(/C=C/C(=O)O)cc(OC)c1OC(=O)c1nc(C)c(C)nc1C	4.46
22) O=C(O)/C=C/c1ccc(O)c(O)c1	4.90
23) CCOC(=O)/C=C/c1ccc(OC)cc1OC(=O)c1nc(C)c(C)nc1C	3.86
